# STUDY_TARGET: T1, LAIR1 on LAIR1 reporter cells (human, UniProt Q6GTX8 22-165, limits assumed); further: test concentration or dose not given here
# T1 chain: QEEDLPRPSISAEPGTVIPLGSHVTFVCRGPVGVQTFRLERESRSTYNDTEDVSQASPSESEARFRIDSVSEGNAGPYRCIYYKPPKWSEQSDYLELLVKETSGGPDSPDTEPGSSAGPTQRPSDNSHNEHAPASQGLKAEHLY
# TEST: cell-based or functional assay
Reported GFP+% of LAIR1 reporter cells, collagen I coated, soluble Ab values follow for various binders
MEASURED_ATTRIBUTE: GFP+% of LAIR1 reporter cells, collagen I coated, soluble Ab (%)

LA-222 (antibody, V domains shown, Rabbit monoclonal IgG) VH: EQSVEESGGDLVKPGASLTLTCTASGFSFTYWICWVRQAPGKGLEWIACIYAGSSGDTYYASWAKGRFTISKTSSTTVTLQMTSLTAADTATYFCARSPDYVAWGYDLWGPGTRVTVSS VL: ELVLTQTPASVSAAVGGTVTINCQASQSIGTNLVWYQQKPGQPPKLLFYYASTLASGVPSRFRGSRSGTEYTLTISDLECADAATYYCQCIYYGGNYGHTFGGGTEVVVK: 0.905
LA-155 (antibody, V domains shown, Rabbit monoclonal IgG) VH: EQSLEESGGDLVKPEGSLTLTCTASGFSFNSNYWICWVRQTPGKGLEWIGCIYSGSSGDTYYASWAKGRFTISKTSSTTVTLQMTSLTAADTATYFCARGADYVYWSYGLWGPGTLVTISS VL: ELVLTQTPASVSAAVGGTLTIKCQASETIGTNLAWYQQKPGQPPKLLIYLASYLASGVSSRFKGSRSGTEFTLTISDLDCDDAATYYCQSTHFGNGHTFGGGTEVVVK: 0.746
LA-252 (antibody, V domains shown, Rabbit monoclonal IgG; Called a potential antagonist antibody) VH: EQSVEESGGRLVTPGTPLTLTCTASGFTISDYHMCWVRQAPGKGLEWIGLIRASHSTAYASWANGRFTISRTSTTVDLKITSPTSEDTATYFCARYGGSGIGCNLWGPGTLVTISS VL: ELVLTQTPASVSEPVGGTVTIKCQASQSIDSNLAWYQQKPGQPPKQLIYAVSNLASGVPSRFKGSGSGTEFTLTISDLECADAASYYCECTYYGNSYVGGFGGGTEVEIK: 0.679
LA-35 (antibody, V domains shown, Rabbit monoclonal IgG; also called mAb LA-35) VH: EQSVKESGGRLVTPGTPLTLTCTVSGIDLSYYSMGWFRQAPGKGLEWIGVISSSDSTYYANWAKGRFTISKTSTTVDLKIAGPTTEDTATYFCARVLANSYNAFNLWGPGSLVTISS VL: ELDLTQTPASVSEPVGGTVTIKCQASQSVGSRLAWYQQKPGQPPKLLIYKASTLASGVPSRFKGSGSGTQFTLTMSDLECADAATYYCQCTNISSAYLGAFGGGTEVEIK: 1.1
